These entries and their values trace back to BindingDB's records for doi:10.1021/acsmedchemlett.0c00340.

# EC50 per record follows
ASSAY NAME: Positive allosteric modulator activity at human alpha1beta2S GABA-A receptor expressed in Xenopus laevis oocytes assessed as change in GABA EC50 at 40 uM by two electrode voltage-clamp assay
// return numeric value only (unit: µM, not printed)

Sample records with EC50:
1. CN1CC[C@]2(O)c3ccccc3N(C)[C@]12c1ccccc1: 13
2. CN1CC[C@]2(O)c3cc(Br)ccc3N(C)[C@]12c1ccccc1: 16

Shifting focus to the molecule that follows.
Query string: Sample CN1CC[C@]2(O)c3cc(I)ccc3N(C)[C@]12c1ccccc1 — what was its EC50?
Result string: 9
